assay-notes: binders of probe aFGF2 on microarray, primary screen, stem cell growth factor project, biochemical, small-molecule microarray, fluorescence 635/667 (AID 1067);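 note: measures binding of biotinylated aFGF2 protein to printed compounds on slides; z-score merges feature fluorescence and signal-to-noise across triplicate slides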
assay-conditions: higher = more signal
Some molecules, each annotated with its measured composite z-score.
reported-endpoint: composite z-score

molecule	readout-value
C=CC[C@@H]1C=C[C@H](ON=C(C)CCC(=O)OC[C@H]2O[C@H](c3ccccc3)C=C[C@@H]2Oc2ccc(OC)cc2)[C@@H](CO)O1	-0.163
COc1cccc([C@H]2Oc3ccc(OC)cc3C(=NO[C@@H]3O[C@H](COC(C)=O)[C@@H](OC(C)=O)[C@H](OC(C)=O)[C@H]3OC(C)=O)[C@@H]2O)c1	-0.116
CC(C)=CCCC(C)=CCON=C1C[C@@H](O)[C@@H](O)[C@@H]2[C@@H]3C(=O)N(C[C@@H]4CCCO4)C(=O)[C@@H]3CC[C@H]12	-0.142
CC(=O)O[C@H]1C2=CO[C@H](C)[C@H]3[C@H]4C5=C([C@H](O)[C@H]6O[C@H]6C5=O)[C@H](OC4C)[C@@]23C(=O)[C@@H]2O[C@@H]21 (stereo not given in full)	-0.0724
C#CCCCON=C1C[C@@H](O)[C@@H](O)[C@@H]2[C@@H]3C(=O)N(C(C)(C)C)C(=O)[C@@H]3CC[C@@H]12	-0.0468
CO[C@@H]1C=CCC(=O)N2CCC[C@H]2C(=O)OC[C@@H](C)C(=O)OC[C@H]1C	-0.159
COC(=O)CC=C[C@@H](C)[C@@H](C=NO[C@H](C)c1cn([C@H](CO)Cc2ccccc2)nn1)NS(=O)(=O)c1ccc(C)cc1	-0.165
CCOC(=O)CCN1C(=O)[C@H]2[C@H]3[C@H](O)[C@H](O)CC(=NOCc4ccccc4)[C@H]3CC[C@H]2C1=O	-0.121
CCOC(=O)[C@H](Cc1ccccc1)NC(=O)CCC1CC(OC(=O)NCCc2ccc(F)cc2)CC2(CCCC(COC(=O)NCCCN3CCCC3=O)O2)O1 (stereo not given in full)	-0.0628
C#CCCCON=C1[C@H]2CCn3c(=O)n(C)c(=O)n3[C@H]2[C@H](O)[C@@H]2O[C@H]12	0.0624
C=COC[C@@H]1CN2[C@@H](CC[C@@H](C)[C@@H]2c2ccc(Br)cc2)C(=O)O1	-0.158
O=C(NN=C1C[C@@H](O)[C@@H](O)[C@@H]2[C@@H]3C(=O)N(C4CCCCC4)C(=O)[C@@H]3CC[C@@H]12)OCc1ccccc1	-0.0667
CC(C)(C)N1C(=O)[C@H]2[C@H]3[C@H](O)C=CC(=O)[C@@H]3CC[C@H]2C1=O	-0.132
COc1ccc(COC(=O)NN=C2C[C@@H](O)[C@@H](O)[C@@H]3[C@@H]4C(=O)N(c5ccc(F)cc5F)C(=O)[C@@H]4CC[C@H]23)cc1	-0.128
CO[C@@H]1C=CCC(=O)N[C@@H](C)C(=O)OC[C@@H](OC)[C@H](C)CCCC(=O)OC[C@H]1C	-0.129
